Property: IC50; scope: individual compounds
target: hMC-3R (Homo sapiens)
Sequence (P41968 whole entry): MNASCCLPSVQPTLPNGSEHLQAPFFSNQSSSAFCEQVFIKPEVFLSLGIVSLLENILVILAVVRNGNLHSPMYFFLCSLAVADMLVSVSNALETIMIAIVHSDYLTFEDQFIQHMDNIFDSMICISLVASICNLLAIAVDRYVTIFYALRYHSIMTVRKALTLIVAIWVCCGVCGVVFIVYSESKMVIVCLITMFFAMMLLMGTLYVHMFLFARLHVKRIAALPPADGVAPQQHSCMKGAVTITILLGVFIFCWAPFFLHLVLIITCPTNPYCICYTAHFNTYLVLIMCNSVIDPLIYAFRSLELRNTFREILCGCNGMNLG
Starred links: 1 amine or outer side, 2 acyl side, 3 side chain; linkers in the order of their positions; H or OH if unused. Positions of bridges follow the written chain, without caps; N, C: chain ends. Non-standard residues stand in square brackets, D forms with d. Residues, ends and D or L forms follow the SMILES beside them. ξ: configuration not given here. dPhe(4-Cl) = N[C@H](Cc1ccc(Cl)cc1)C(=O)O; 2Nal = N[C@@H](Cc1ccc2ccccc2c1)C(=O)O; Suc = O=C(CCC(=O)[*:2])[*:1]; ξE = NC(CCC(=O)O)C(=O)O; ξDab = NCCC(N)C(=O)O; ξK = NCCCCC(N)C(=O)O; ξDap = NCC(N)C(=O)O; Ava = NCCCCC(=O)O; GABA = NCCCC(=O)O; βAla = NCCC(=O)O

- compound: "N=C(N)NCCC[C@@H]1NC(=O)[C@@H](Cc2ccccc2)NC(=O)[C@H](Cc2c[nH]cn2)NC(=O)CCNC(=O)CCC(C(N)=O)NC(=O)[C@H](Cc2c[nH]c3ccccc23)NC1=O (stereo partly drawn) [Example 8] ([βAla]H[dF]RW[ξE]-NH2; lactam N-6)"
  readout relation: "="
  IC50, nM: 450
- compound: "N=C(N)NCCC[C@@H]1NC(=O)[C@@H](Cc2ccccc2)NC(=O)[C@H](Cc2c[nH]cn2)NC(=O)CCCNC(=O)CCC(C(N)=O)NC(=O)[C@H](Cc2c[nH]c3ccccc23)NC1=O (stereo partly drawn) [Example 7] ([GABA]H[dF]RW[ξE]-NH2; lactam N-6)"
  readout relation: "="
  IC50, nM: 1830
- compound: "N=C(N)NCCC[C@@H]1NC(=O)[C@@H](Cc2ccccc2)NC(=O)[C@H](Cc2c[nH]cn2)NC(=O)CCC(=O)NCCC(C(N)=O)NC(=O)[C@H](Cc2c[nH]c3ccccc23)NC1=O (stereo partly drawn) [Example 2] (H[dF]RW[ξDab]-NH2; linker N-5 via Suc)"
  readout relation: "="
  IC50, nM: 1800
- compound: "N=C(N)NCCC[C@@H]1NC(=O)[C@@H](Cc2ccc(Cl)cc2)NC(=O)[C@H](Cc2c[nH]cn2)NC(=O)CCC(=O)NCCCCC(C(N)=O)NC(=O)[C@H](Cc2c[nH]c3ccccc23)NC1=O (stereo partly drawn) [Example 4] (H[dPhe(4-Cl)]RW[ξK]-NH2; linker N-5 via Suc)"
  readout relation: "="
  IC50, nM: 17
- compound: "N=C(N)NCCC[C@@H]1NC(=O)[C@@H](Cc2ccccc2)NC(=O)[C@H](Cc2c[nH]cn2)NC(=O)CCC(=O)NCC(C(N)=O)NC(=O)[C@H](Cc2c[nH]c3ccccc23)NC1=O (stereo partly drawn) [Example 3] (H[dF]RW[ξDap]-NH2; linker N-5 via Suc)"
  readout relation: "="
  IC50, nM: 1600
- compound: "N=C(N)NCCC[C@@H]1NC(=O)[C@@H](Cc2ccccc2)NC(=O)[C@H](Cc2c[nH]cn2)NC(=O)CCC(=O)NCCCCC(C(N)=O)NC(=O)[C@H](Cc2ccc3ccccc3c2)NC1=O (stereo partly drawn) [Example 5] (H[dF]R[2Nal][ξK]-NH2; linker N-5 via Suc)"
  readout relation: "="
  IC50, nM: 440
- compound: "N=C(N)NCCC[C@@H]1NC(=O)[C@@H](Cc2ccccc2)NC(=O)[C@H](Cc2c[nH]cn2)NC(=O)CCCCNC(=O)CCC(C(N)=O)NC(=O)[C@H](Cc2c[nH]c3ccccc23)NC1=O (stereo partly drawn) [Example 6] ([Ava]H[dF]RW[ξE]-NH2; lactam N-6)"
  readout relation: "="
  IC50, nM: 580
- compound: "N=C(N)NCCC[C@@H]1NC(=O)[C@@H](Cc2ccccc2)NC(=O)[C@H](Cc2c[nH]cn2)NC(=O)CNC(=O)CCC(C(N)=O)NC(=O)[C@H](Cc2c[nH]c3ccccc23)NC1=O (stereo partly drawn) [Example 9] (GH[dF]RW[ξE]-NH2; lactam N-6)"
  readout relation: ">"
  IC50, nM: 1000
- compound: "N=C(N)NCCC[C@@H]1NC(=O)[C@@H](Cc2ccccc2)NC(=O)[C@H](Cc2c[nH]cn2)NC(=O)CCC(=O)NCCCCC(C(N)=O)NC(=O)[C@H](Cc2c[nH]c3ccccc23)NC1=O (stereo partly drawn) [Example 1] (H[dF]RW[ξK]-NH2; linker N-5 via Suc)"
  readout relation: "="
  IC50, nM: 418
